Hey, just so you know, these numbers are from patent US8987502B2.

- System: PC-3
- ASSAY METHOD TEXT: MTT solid tumor cell proliferation inhibition, PC-3
- Type: cell-based, human
- CONDITION DESCRIPTION: Homo sapiens; PC-3, 72 h, MTT
RECORDED METRIC: IC50 (µg/mL)
// return numeric value only (unit: µg/mL, not printed)

Which IC50 value is on record for CC1(C)CC[C@]2(NC(=O)c3cccs3)CC[C@]3(C)C(=CC[C@@H]4[C@@]5(C)CC[C@H](O)C(C)(C)[C@@H]5CC[C@]43C)[C@@H]2C1 ?
17.4

Then this molecule: CC1(C)CC[C@]2(NC(=O)c3ccco3)CC[C@]3(C)C(=CC[C@@H]4[C@@]5(C)CC[C@H](O)C(C)(C)[C@@H]5CC[C@]43C)[C@@H]2C1
19.5

Then this molecule: CC1(C)CC[C@]2(NC(=O)C3CC3)CC[C@]3(C)C(=CC[C@@H]4[C@@]5(C)CC[C@H](O)C(C)(C)[C@@H]5CC[C@]43C)[C@@H]2C1
13.1

Then this molecule: CC1(C)CC[C@]2(NC(=O)c3ccccc3)CC[C@]3(C)C(=CC[C@@H]4[C@@]5(C)CC[C@H](O)C(C)(C)[C@@H]5CC[C@]43C)[C@@H]2C1
19.9

Then this molecule: CC1(C)CC[C@]2(NC(=O)c3cccnc3Cl)CC[C@]3(C)C(=CC[C@@H]4[C@@]5(C)CC[C@H](O)C(C)(C)[C@@H]5CC[C@]43C)[C@@H]2C1
18.3
